Listed binders paired with reported t1/2
Target: T1, human IL-36R extracellular domain expressed with a C-terminal mouse IgG2a Fc tag (hIL-36R-mFc) (human; mouse, UniProt Q9HB29 20-337)
T1 construct: not shown: mouse IgG2a Fc, E98-K330
T1 sequence (looked up): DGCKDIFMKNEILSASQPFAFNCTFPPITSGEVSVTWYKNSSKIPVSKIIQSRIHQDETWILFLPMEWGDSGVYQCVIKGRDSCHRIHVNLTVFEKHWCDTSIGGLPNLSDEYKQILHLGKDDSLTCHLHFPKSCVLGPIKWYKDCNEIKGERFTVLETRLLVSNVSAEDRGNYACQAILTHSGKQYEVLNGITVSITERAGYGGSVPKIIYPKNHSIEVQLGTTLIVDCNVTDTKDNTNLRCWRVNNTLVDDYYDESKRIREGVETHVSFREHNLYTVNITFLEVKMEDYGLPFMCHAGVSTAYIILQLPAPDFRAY
Test: SPR Biacore 4000, mAb captured on anti-hFc, 37C
experimental readout: t1/2 (min)

* H4H14758P (antibody, human IgG4 S228P, kappa, V domains shown, Fully human anti-IL-36R antibody) VH: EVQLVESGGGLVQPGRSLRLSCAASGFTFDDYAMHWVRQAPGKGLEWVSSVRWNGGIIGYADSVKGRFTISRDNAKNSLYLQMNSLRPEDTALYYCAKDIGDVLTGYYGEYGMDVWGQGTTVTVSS VL: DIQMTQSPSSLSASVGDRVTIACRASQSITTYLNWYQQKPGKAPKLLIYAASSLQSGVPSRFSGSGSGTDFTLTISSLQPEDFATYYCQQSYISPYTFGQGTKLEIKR | 40
* H4H14728P (antibody, human IgG4 S228P, kappa, V domains shown, Fully human anti-IL-36R antibody) VH: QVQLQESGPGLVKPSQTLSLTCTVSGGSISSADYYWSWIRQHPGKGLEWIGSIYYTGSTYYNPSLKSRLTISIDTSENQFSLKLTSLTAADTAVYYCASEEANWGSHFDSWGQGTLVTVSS VL: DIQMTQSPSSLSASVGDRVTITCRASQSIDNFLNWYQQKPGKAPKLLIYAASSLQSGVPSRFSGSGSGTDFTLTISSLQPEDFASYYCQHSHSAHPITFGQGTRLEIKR | 25
* H4H14709P (antibody, human IgG4 S228P, kappa, V domains shown, Fully human anti-IL-36R antibody) VH: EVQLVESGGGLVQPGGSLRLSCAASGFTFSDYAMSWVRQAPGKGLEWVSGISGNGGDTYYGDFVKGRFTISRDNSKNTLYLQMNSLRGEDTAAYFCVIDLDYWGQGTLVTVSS VL: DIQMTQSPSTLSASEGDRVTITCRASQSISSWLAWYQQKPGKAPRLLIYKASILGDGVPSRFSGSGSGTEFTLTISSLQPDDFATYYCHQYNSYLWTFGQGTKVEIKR | 104
* H4H14757P (antibody, human IgG4 S228P, kappa, V domains shown, Fully human anti-IL-36R antibody) VH: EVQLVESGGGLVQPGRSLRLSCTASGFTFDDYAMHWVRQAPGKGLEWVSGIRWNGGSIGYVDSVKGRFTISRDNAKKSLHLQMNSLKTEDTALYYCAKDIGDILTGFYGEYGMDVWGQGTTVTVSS VL: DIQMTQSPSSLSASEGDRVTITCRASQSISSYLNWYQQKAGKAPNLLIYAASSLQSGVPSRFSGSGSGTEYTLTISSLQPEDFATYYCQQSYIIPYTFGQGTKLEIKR | 77
* H4H14700P2 (antibody, human IgG4 S228P, kappa, V domains shown, Fully human anti-IL-36R antibody) VH: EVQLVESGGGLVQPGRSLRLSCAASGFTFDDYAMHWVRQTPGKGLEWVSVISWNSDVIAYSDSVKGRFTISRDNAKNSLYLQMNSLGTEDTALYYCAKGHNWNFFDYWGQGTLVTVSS VL: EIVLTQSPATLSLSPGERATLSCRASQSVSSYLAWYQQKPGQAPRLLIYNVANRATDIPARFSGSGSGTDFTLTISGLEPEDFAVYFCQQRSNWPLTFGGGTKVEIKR | 55
* H4H14706P2 (antibody, human IgG4 S228P, kappa, V domains shown, Fully human anti-IL-36R antibody) VH: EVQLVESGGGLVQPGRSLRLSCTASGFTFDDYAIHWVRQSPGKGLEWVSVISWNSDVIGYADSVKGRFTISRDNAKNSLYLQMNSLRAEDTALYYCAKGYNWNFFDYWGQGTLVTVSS VL: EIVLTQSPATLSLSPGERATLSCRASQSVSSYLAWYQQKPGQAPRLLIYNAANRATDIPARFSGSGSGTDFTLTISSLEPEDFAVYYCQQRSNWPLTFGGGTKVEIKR | 43
* H4H14699P2 (antibody, human IgG4 S228P, kappa, V domains shown, Fully human anti-IL-36R antibody) VH: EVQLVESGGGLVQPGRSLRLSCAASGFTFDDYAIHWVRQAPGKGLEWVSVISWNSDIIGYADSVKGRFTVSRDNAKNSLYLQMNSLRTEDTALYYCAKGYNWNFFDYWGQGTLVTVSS VL: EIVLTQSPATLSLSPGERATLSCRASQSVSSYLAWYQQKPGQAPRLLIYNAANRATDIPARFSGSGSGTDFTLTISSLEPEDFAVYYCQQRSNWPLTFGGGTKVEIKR | 25
* H4H14731P (antibody, human IgG4 S228P, kappa, V domains shown, Fully human anti-IL-36R antibody) VH: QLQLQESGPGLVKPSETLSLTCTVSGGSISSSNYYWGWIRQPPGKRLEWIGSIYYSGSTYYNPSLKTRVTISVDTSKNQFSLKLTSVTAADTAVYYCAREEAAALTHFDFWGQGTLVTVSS VL: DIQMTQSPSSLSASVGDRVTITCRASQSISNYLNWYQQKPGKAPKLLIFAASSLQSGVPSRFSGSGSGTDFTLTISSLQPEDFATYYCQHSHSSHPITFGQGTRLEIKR | 26
* H4H14708P2 (antibody, human IgG4 S228P, kappa, V domains shown, Fully human anti-IL-36R antibody) VH: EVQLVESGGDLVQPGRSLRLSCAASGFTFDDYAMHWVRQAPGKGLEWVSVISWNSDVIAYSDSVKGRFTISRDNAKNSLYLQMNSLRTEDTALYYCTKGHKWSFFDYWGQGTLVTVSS VL: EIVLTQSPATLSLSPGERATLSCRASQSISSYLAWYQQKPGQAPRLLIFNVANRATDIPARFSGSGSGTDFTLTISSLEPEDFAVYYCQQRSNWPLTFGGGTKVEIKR | 58
